Numbers sourced from patent US20070117743A1.

- System: HT-29
- assayOverview: SRB colorimetric assay of cell growth and viability, HT-29
- Type: cell-based, human
- measurementContext: 48 hours exposure; read-out: LC50 HT-29
Where a SMILES comes first, the peptide text is derived from it. Bridges are numbered along the chain shown (N, C = ends). [ ]: non-standard residue; d: D form. The star is where a group is joined. d(aThr) = C[C@@H](O)[C@@H](N)C(=O)O; Hexanoyl(5-Me) = CC(C)CCCC(=O)*; Orn = NCCC[C@H](N)C(=O)O; Dhb = C/C=C(\N)C(=O)O
metric: CC50 (µM)
One number for each entry, in µM.

Query string: Fill blank: measured CC50 of the compound C/C=C1\NC(=O)[C@H](Cc2ccccc2)NC(=O)[C@@H](C(C)C)NC(=O)[C@@H](C(C)C)NC(=O)[C@H](NC(=O)[C@H](NC(=O)[C@H](CCCN)NC(=O)[C@H]2CCCN2C(=O)[C@H](NC(=O)[C@@H](NC(=O)[C@@H](NC(=O)[C@H](NC(=O)CCCC(C)C)C(C)C)[C@@H](C)O)C(C)C)C(C)C)C(C)C)[C@@H](C)OC(=O)[C@H](C(C)C)NC1=O [Compound 12, [D-Val^5, D-Val^7]-KF] ({Hexanoyl(5-Me)}-[dV]TV[dV][dP][Orn][dV][d(aThr)][dV][dV]F[Dhb]V; ester 8-C) is ____.
Result string: 4.88

----------
- Test system: PANC-1
- assayOverview: SRB colorimetric assay of cell growth and viability, PANC-1
- Type: cell-based, human
- measurementContext: 48 hours exposure, SRB
metric: TGI PANC-1
State the value, then name its unit.

Query string: Lab note: need TGI PANC-1 for C/C=C1\NC(=O)[C@H](Cc2ccccc2)NC(=O)[C@@H](C(C)C)NC(=O)[C@@H]([C@@H](C)CC)NC(=O)[C@H](NC(=O)[C@H](NC(=O)[C@H](CCCNC(=O)C(F)(F)F)NC(=O)[C@H]2CCCN2C(=O)[C@H](NC(=O)[C@@H](NC(=O)[C@@H](NC(=O)[C@H](NC(=O)CC[C@@H](C)CC)C(C)C)[C@@H](C)O)C(C)C)C(C)C)[C@@H](C)CC)[C@@H](C)OC(=O)[C@H](C(C)C)NC1=O [Compound 96] on PANC-1, anyone have it?
Result string: 6.35E−06 Molar

----------
- Tested on: SK-MEL-28
- assayOverview: SRB colorimetric assay of cell growth and viability, SK-MEL-28
- Type: cell-based, human
- measurementContext: 48 hours exposure; read-out: LC50 MEL-28
Where a SMILES comes first, the peptide text is derived from it. Bridges are numbered along the chain shown (N, C = ends). [ ]: non-standard residue; d: D form. The star is where a group is joined. d(aIle) = CC[C@H](C)[C@@H](N)C(=O)O; d(aThr) = C[C@@H](O)[C@@H](N)C(=O)O; hCha = N[C@@H](CCC1CCCCC1)C(=O)O; Hexanoyl(5-Me) = CC(C)CCCC(=O)*; Orn = NCCC[C@H](N)C(=O)O; Dhb = C/C=C(\N)C(=O)O
metric: CC50 (µM)
Answers are plain numbers, in µM.

molecule: C/C=C1\NC(=O)[C@H](Cc2ccccc2)NC(=O)[C@@H](C(C)C)NC(=O)[C@@H]([C@@H](C)CC)NC(=O)[C@H](NC(=O)[C@H](NC(=O)[C@H](CCCN)NC(=O)[C@H]2CCCN2C(=O)[C@H](NC(=O)[C@H](CCC2CCCCC2)NC(=O)[C@@H](NC(=O)[C@H](NC(=O)CCCC(C)C)C(C)C)[C@@H](C)O)C(C)C)[C@@H](C)CC)[C@@H](C)OC(=O)[C@H](C(C)C)NC1=O [Compound 9, [hCh^11]-KF] ({Hexanoyl(5-Me)}-[dV]T[hCha][dV][dP][Orn][d(aIle)][d(aThr)][d(aIle)][dV]F[Dhb]V; ester 8-C)
reading: 2.62

molecule: C/C=C1\NC(=O)[C@H](Cc2ccccc2)NC(=O)[C@@H](C(C)C)NC(=O)[C@@H]([C@@H](C)CC)NC(=O)[C@H](NC(=O)[C@H](NC(=O)[C@H](CCCN)NC(=O)[C@H]2CCCN2C(=O)[C@H](NC(=O)[C@H](CCC(=O)O)NC(=O)[C@@H](NC(=O)[C@H](NC(=O)CCCC(C)C)C(C)C)[C@@H](C)O)C(C)C)[C@@H](C)CC)[C@@H](C)OC(=O)[C@H](C(C)C)NC1=O [Compound 51, [Glu^11]-KF] ({Hexanoyl(5-Me)}-[dV]TE[dV][dP][Orn][d(aIle)][d(aThr)][d(aIle)][dV]F[Dhb]V; ester 8-C)
reading: 6.63

molecule: C/C=C1\NC(=O)[C@H](Cc2ccccc2)NC(=O)[C@@H](C(C)C)NC(=O)[C@@H](C(C)C)NC(=O)[C@H](NC(=O)[C@H](NC(=O)[C@H](CCCN)NC(=O)[C@H]2CCCN2C(=O)[C@H](NC(=O)[C@@H](NC(=O)[C@@H](NC(=O)[C@H](NC(=O)CCCC(C)C)C(C)C)[C@@H](C)O)C(C)C)C(C)C)C(C)C)[C@@H](C)OC(=O)[C@H](C(C)C)NC1=O [Compound 12, [D-Val^5, D-Val^7]-KF] ({Hexanoyl(5-Me)}-[dV]TV[dV][dP][Orn][dV][d(aThr)][dV][dV]F[Dhb]V; ester 8-C)
reading: 5.78

With those in mind, consider the next molecule.
Query string: Data request, read-out CC50, for C/C=C1\NC(=O)[C@H](Cc2ccccc2)NC(=O)[C@@H](C(C)C)NC(=O)[C@@H]([C@@H](C)CC)NC(=O)[C@H](NC(=O)[C@H](NC(=O)[C@H](CCCN)NC(=O)[C@H]2CCCN2C(=O)[C@H](NC(=O)[C@@H](NC(=O)[C@@H](NC(=O)[C@@H](NC(=O)CCCC(C)C)C(C)C)[C@@H](C)O)C(C)C)C(C)C)[C@@H](C)CC)[C@@H](C)OC(=O)[C@H](C(C)C)NC1=O [Compound 38, [Val^13]-KF]
Result string: 3.55

----------
- System: PANC-1
- assayOverview: SRB colorimetric assay of cell growth and viability, PANC-1
- Assay type: cell-based, human
- measurementContext: 48 hours exposure
- Description: The finality of this assay is to interrupt the growth of a “in vitro” tumor cell culture by means a continued exhibition of the cells to the sample to be testing. […] Cells are seeded in 96 well microtiter plates, at 5×10^3 cells per well in aliquots of 195 μL medium, and they are allowed to attach to the plate surface by growing in drug free medium for 18 hours. […] Optical densities are read on a automated spectrophotometric plate reader at a single wavelength of 490 nm. […]
Where a SMILES comes first, the peptide text is derived from it. Bridges are numbered along the chain shown (N, C = ends). [ ]: non-standard residue; d: D form. The star is where a group is joined. d(aIle) = CC[C@H](C)[C@@H](N)C(=O)O; d(aThr) = C[C@@H](O)[C@@H](N)C(=O)O; Hexanoyl(5-Me) = CC(C)CCCC(=O)*; Orn = NCCC[C@H](N)C(=O)O; Dhb = C/C=C(\N)C(=O)O
metric: TGI PANC-1 (Molar)
One number for each entry, in Molar.

# map each compound to its TGI PANC-1
1. C/C=C1\NC(=O)[C@H](Cc2ccccc2)NC(=O)[C@@H](C(C)C)NC(=O)[C@@H]([C@@H](C)CC)NC(=O)[C@H](NC(=O)[C@H](NC(=O)[C@H](CCCN)NC(=O)[C@H]2CCCN2C(=O)[C@H](NC(=O)[C@@H](NC(=O)[C@@H](NC(=O)[C@@H](NC(=O)CCCC(C)C)C(C)C)[C@@H](C)O)C(C)C)C(C)C)[C@@H](C)CC)[C@@H](C)OC(=O)[C@H](C(C)C)NC1=O [Compound 38, [Val^13]-KF]
2. C/C=C1\NC(=O)[C@H](Cc2ccccc2)NC(=O)[C@@H](C(C)C)NC(=O)[C@@H]([C@@H](C)CC)NC(=O)[C@H](NC(=O)[C@H](NC(=O)[C@H](CCCN)NC(=O)[C@H]2CCCN2C(=O)[C@H](NC(=O)[C@@H](NC(=O)[C@@H](NC(=O)[C@H](NC(=O)CCCC(C)C)C(C)C)[C@@H](C)O)[C@@H](C)O)C(C)C)[C@@H](C)CC)[C@@H](C)OC(=O)[C@H](C(C)C)NC1=O [Compound 50, [Thr^11]-KF] ({Hexanoyl(5-Me)}-[dV]TT[dV][dP][Orn][d(aIle)][d(aThr)][d(aIle)][dV]F[Dhb]V; ester 8-C)

Result string:
1: 1.20E−07; 2: 6.76E−06

----------
- System: SK-MEL-28
- assayOverview: SRB colorimetric assay of cell growth and viability, SK-MEL-28
- Type: cell-based, human
- measurementContext: 48 hours exposure
Where a SMILES comes first, the peptide text is derived from it. Bridges are numbered along the chain shown (N, C = ends). [ ]: non-standard residue; d: D form. The star is where a group is joined. d(aIle) = CC[C@H](C)[C@@H](N)C(=O)O; d(aThr) = C[C@@H](O)[C@@H](N)C(=O)O; Hexanoyl(5-Me) = CC(C)CCCC(=O)*; Orn = NCCC[C@H](N)C(=O)O; Dhb = C/C=C(\N)C(=O)O
metric: TGI MEL-28 (Molar)
Give bare numbers, in Molar.

Recorded TGI MEL-28, per entry:
compound: C/C=C1\NC(=O)[C@H](Cc2ccccc2)NC(=O)[C@@H](C(C)C)NC(=O)[C@@H]([C@@H](C)CC)NC(=O)[C@H](NC(=O)[C@H](NC(=O)[C@H](CCCN)NC(=O)[C@H]2CCCN2C(=O)[C@H](NC(=O)[C@@H](NC(=O)[C@@H](NC(=O)[C@H](NC(=O)CCCC(C)C)C(C)C)[C@@H](C)O)C(C)C)C(C)C)[C@@H](C)CC)COC(=O)[C@H](C(C)C)NC1=O [Compound 3, [D-Ser^6]-KF] ({Hexanoyl(5-Me)}-[dV]TV[dV][dP][Orn][d(aIle)][dS][d(aIle)][dV]F[Dhb]V; ester 8-C)
metric: TGI MEL-28
unitsLabel: Molar
reading: 2.66E−06

compound: C/C=C1\NC(=O)[C@H](Cc2ccccc2)NC(=O)[C@@H](C(C)C)NC(=O)[C@@H]([C@@H](C)CC)NC(=O)[C@H](NC(=O)[C@H](NC(=O)[C@H](CCCN)NC(=O)[C@H]2CCCN2C(=O)[C@H](NC(=O)[C@H](CCC(=O)O)NC(=O)[C@@H](NC(=O)[C@H](NC(=O)CCCC(C)C)C(C)C)[C@@H](C)O)C(C)C)[C@@H](C)CC)[C@@H](C)OC(=O)[C@H](C(C)C)NC1=O [Compound 51, [Glu^11]-KF] ({Hexanoyl(5-Me)}-[dV]TE[dV][dP][Orn][d(aIle)][d(aThr)][d(aIle)][dV]F[Dhb]V; ester 8-C)
metric: TGI MEL-28
unitsLabel: Molar
reading: 6.63E−06

compound: C/C=C1\NC(=O)[C@H](Cc2ccccc2)NC(=O)[C@@H](C(C)C)NC(=O)[C@@H]([C@@H](C)CC)NC(=O)[C@H](NC(=O)[C@H](NC(=O)[C@H](CCCN)NC(=O)[C@H]2CCCN2C(=O)[C@H](NC(=O)[C@@H](NC(=O)[C@@H](NC(=O)[C@@H](Cc2ccccc2)NC(=O)CCCC(C)C)[C@@H](C)O)C(C)C)C(C)C)[C@@H](C)CC)[C@@H](C)OC(=O)[C@H](C(C)C)NC1=O [Compound 36, [D-Phe^13]-KF]
metric: TGI MEL-28
unitsLabel: Molar
reading: 7.21E−07

compound: C/C=C1\NC(=O)[C@H](Cc2ccccc2)NC(=O)[C@@H](C(C)C)NC(=O)[C@@H]([C@@H](C)CC)NC(=O)[C@H](NC(=O)[C@H](NC(=O)[C@H](CCCN)NC(=O)[C@H]2CCCN2C(=O)[C@H](NC(=O)[C@@H](NC(=O)[C@@H](NC(=O)[C@H](NC(=O)C(F)(F)C(F)(F)C(F)(F)C(F)(F)C(F)(F)C(F)(F)F)C(C)C)[C@@H](C)O)C(C)C)C(C)C)[C@@H](C)CC)[C@@H](C)OC(=O)[C@H](C(C)C)NC1=O [Compound 26, [Pfh^14]-KF]
metric: TGI MEL-28
unitsLabel: Molar
reading: 1.50E−06

Continue with the compound presented below.
Query string: Record request: TGI MEL-28 value, item C/C=C1\NC(=O)[C@H](Cc2ccccc2)NC(=O)[C@@H](C(C)C)NC(=O)[C@@H]([C@@H](C)CC)NC(=O)[C@H](NC(=O)[C@H](NC(=O)[C@H](CCCCN)NC(=O)[C@H]2CCCN2C(=O)[C@H](NC(=O)[C@@H](NC(=O)[C@@H](NC(=O)[C@H](NC(=O)CCCC(C)C)C(C)C)[C@@H](C)O)C(C)C)C(C)C)[C@@H](C)CC)[C@@H](C)OC(=O)[C@H](C(C)C)NC1=O [Compound 5, [Lys^8]-KF]
Result string: 1.87E−06
